# assayedSystem: FL-SMARCA4 (Homo sapiens, UniProt P51532)
# Sequence (P51532 whole entry): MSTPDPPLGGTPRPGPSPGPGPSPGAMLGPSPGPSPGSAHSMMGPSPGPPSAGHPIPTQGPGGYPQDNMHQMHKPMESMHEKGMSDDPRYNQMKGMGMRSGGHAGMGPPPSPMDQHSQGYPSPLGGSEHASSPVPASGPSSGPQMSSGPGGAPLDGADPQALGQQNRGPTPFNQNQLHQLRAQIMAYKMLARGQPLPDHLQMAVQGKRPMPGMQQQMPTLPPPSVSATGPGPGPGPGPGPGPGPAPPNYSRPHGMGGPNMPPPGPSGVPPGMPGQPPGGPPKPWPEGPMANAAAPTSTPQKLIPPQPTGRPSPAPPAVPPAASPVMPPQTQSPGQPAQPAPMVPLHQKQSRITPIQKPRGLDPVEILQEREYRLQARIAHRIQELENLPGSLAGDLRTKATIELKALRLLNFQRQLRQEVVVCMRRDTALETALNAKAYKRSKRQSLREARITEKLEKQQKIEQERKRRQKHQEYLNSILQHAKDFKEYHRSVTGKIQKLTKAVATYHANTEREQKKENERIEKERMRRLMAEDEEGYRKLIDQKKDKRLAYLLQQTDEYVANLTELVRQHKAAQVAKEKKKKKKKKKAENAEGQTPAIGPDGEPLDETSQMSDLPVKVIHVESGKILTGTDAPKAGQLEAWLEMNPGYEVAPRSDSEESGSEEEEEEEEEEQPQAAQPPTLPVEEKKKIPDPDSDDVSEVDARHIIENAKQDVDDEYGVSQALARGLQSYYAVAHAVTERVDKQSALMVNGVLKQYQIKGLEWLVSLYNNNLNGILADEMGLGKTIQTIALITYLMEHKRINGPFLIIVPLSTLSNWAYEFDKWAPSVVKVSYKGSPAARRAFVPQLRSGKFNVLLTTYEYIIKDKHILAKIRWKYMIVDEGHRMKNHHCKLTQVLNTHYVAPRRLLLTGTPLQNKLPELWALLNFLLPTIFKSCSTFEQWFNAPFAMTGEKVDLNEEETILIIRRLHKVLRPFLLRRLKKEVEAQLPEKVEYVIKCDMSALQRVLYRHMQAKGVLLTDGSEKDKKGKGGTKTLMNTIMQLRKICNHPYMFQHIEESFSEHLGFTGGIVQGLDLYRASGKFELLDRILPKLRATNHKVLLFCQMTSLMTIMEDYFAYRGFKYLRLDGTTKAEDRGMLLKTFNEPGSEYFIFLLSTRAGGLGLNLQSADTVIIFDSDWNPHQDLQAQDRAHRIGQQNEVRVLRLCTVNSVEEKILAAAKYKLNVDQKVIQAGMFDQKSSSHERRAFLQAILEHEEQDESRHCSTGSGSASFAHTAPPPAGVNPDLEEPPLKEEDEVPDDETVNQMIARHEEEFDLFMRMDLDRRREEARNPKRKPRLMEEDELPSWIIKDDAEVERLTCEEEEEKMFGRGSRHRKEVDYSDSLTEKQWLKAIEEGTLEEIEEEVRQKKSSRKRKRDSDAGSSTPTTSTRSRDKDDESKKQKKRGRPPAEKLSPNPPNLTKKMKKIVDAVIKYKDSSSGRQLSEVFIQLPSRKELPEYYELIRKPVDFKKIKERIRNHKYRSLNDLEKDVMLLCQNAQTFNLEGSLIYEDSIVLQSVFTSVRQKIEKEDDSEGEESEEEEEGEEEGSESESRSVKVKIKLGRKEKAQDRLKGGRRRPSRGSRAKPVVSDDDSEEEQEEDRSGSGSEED
# testSummary: SMARCA4 ATPase activity assay (ADP-Glo, chicken mononucleosome substrate)
# measurementParameters: FL-SMARCA4 IC50
pIC50: −log10 of the molar value.
measuredParameter: pIC50

Sample records with pIC50:
INSERT INTO measurements (compound, assayedsystem, measuredparameter, numericresult) VALUES
  ('N#Cc1cncc(C#Cc2cc(C(=O)Nc3cc(F)c(=O)n(CC(F)F)c3)sc2Cl)c1 [Compound 64d]', 'FL-SMARCA4 (Homo sapiens, UniProt P51532)', 'pIC50', 6.30),
  ('O=C(Nc1cc(F)c(=O)n(CC(F)F)c1)c1cc(C#C[C@H]2C[C@H](CO)C2)c(Cl)s1 [Compound 133d]', 'FL-SMARCA4 (Homo sapiens, UniProt P51532)', 'pIC50', 6.78),
  ('N#Cc1cc(C(=O)Nc2cc(C#N)c(=O)n(CC(F)F)c2)sc1C(F)(F)F [Compound 56d]', 'FL-SMARCA4 (Homo sapiens, UniProt P51532)', 'pIC50', 6.27);

[P] O=C(Nc1cc(F)c(=O)n(CC(F)F)c1)c1cc(C#C[C@H]2CCC[C@H](O)C2)c(Cl)s1 [Compound 129d]
[Q] N#Cc1cc(C(=O)Nc2cc(F)c(=O)n(CC3(F)CC3)c2)sc1C(F)(F)F [Compound 85d]
For this pair, P and Q , which shows a numerically higher pIC50? Answer with the label corresponding to your selection. P
(P: 6.79, Q: 6.22)

[a] N#Cc1cc(NC(=O)c2cc(Cl)c(C(F)(F)F)s2)cn(CC(F)F)c1=O [Compound 86d]
[b] CC(=O)NC1COCC(C#Cc2cc(C(=O)Nc3cc(F)c(=O)n(CC(F)F)c3)sc2Cl)C1 (centres unmarked) [Compound 57d]
Hey, between a and b which has a smaller measured pIC50? Answer with the label corresponding to your selection. a
(a: 6.29, b: 6.72)

----------
# assayedSystem: FL-SMARCA4 (Homo sapiens, UniProt P51532)
# testSummary: SMARCA4 ATPase activity assay (ADP-Glo, chicken mononucleosome substrate)
# measurementParameters: FL-SMARCA4 IC>50, Table 3c.2; ATPase assay, enzyme 5 nM, ATP 250 uM, chicken mononucleosome 10 nM, 30 min preincubation
measuredParameter: IC50 (µM)

[a] O=C(Nc1cc(F)c(=O)n(CC(F)F)c1)c1cc(C#Cc2ccncc2)cs1 [Compound 23c]
[b] Cc1sc(C(=O)Nc2cc(F)c(=O)n(CC(F)F)c2)cc1C#CC1COC1 [Compound 92c]
Hey, between a and b which has a smaller measured IC50? Answer with the label corresponding to your selection. a
(a: 0.219 µM, b: 0.346 µM)

[I] O=C(Nc1cc(F)c(=O)n(CC(F)F)c1)c1cc(C#CC2COC2)c(F)s1 [Compound 108c]
[II] O=C1Cc2ccc(C#Cc3cc(C(=O)Nc4cc(F)c(=O)n(CC(F)F)c4)sc3Cl)cc2N1 [Compound 140c]
[III] O=C1CC(C#Cc2cc(C(=O)Nc3cc(F)c(=O)n(CC(F)F)c3)sc2Cl)CN1 (centres unmarked) [Compound 116c]
[IV] O=C(Nc1ccc(=O)n(CC(F)F)c1)c1cc(Cl)c(C(F)(F)F)s1 [Compound 72c]
[V] N#Cc1nc(C#Cc2cc(C(=O)Nc3cc(F)c(=O)n(CC(F)F)c3)sc2Cl)cs1 [Compound 117c]
Hey, can you sort those compounds up there by IC50, smallest first? Write the labels out in the order the request specifies. V, II, I, III, IV
(V: 0.00699 µM, II: 0.0633 µM, I: 0.2 µM, III: 0.547 µM, IV: 1.55 µM)

[P] CN1CCn2c(C#Cc3cc(C(=O)Nc4cc(F)c(=O)n(CC(F)F)c4)sc3Cl)cnc2C1 [Compound 66c]
[Q] O=C(Nc1cc(F)c(=O)n(CC(F)F)c1)c1cc(C#CC2COC2)cs1 [Compound 73c]
[R] O=C(Nc1cc(F)c(=O)n(CC(F)F)c1)c1cc(C#C[C@H]2CCOC2)c(Cl)s1 [Compound 78c]
[S] O=C(Nc1cc(F)c(=O)n(CC(F)F)c1)c1cc(C#CC2CCOCC2)c(Cl)s1 [Compound 22c]
Order these by IC50, descending, and give the full ranking. Write the labels out in the order the request specifies. Q, P, R, S
(Q: 2.93 µM, P: 0.772 µM, R: 0.256 µM, S: 0.0608 µM)

----------
# assayedSystem: UniProt:P51532
# testSummary: SMARCA4 ATPase activity assay (ADP-Glo, chicken mononucleosome substrate)
# measurementParameters: FL-SMARCA4 IC50, Table 3.2; ATPase assay, enzyme 5 nM, ATP 250 uM, chicken mononucleosome 10 nM, 30 min preincubation
measuredParameter: IC50 (nM)

INSERT INTO measurements (smilesstring, assayedsystem, numericresult) VALUES
  ('CCn1cc(NC(=O)c2cc(C#N)c(C#N)s2)cc(Cl)c1=O', 'UniProt:P51532', 184),
  ('Cn1c(C(=O)Nc2cc(Cl)c(=O)n(CCF)c2)cc(Cl)c1C#N', 'UniProt:P51532', 940);

[a] O=C(Nc1ccc(=O)n(CC(F)(F)F)c1)c1cc(Cl)c(Cl)s1
[b] O=C(Nc1ccc(=O)n(CCF)c1)c1cc(Cl)n[nH]1
[c] N#Cc1cc(C(=O)Nc2ccc(=O)n(CCF)c2)sc1C#N
Hey, can you sort those compounds up there by IC50, smallest first? Write the labels out in the order the request specifies. c, a, b

----------
# assayedSystem: FL-SMARCA2 (full-length human SMARCA2 isoform 1) (Homo sapiens, UniProt P51531)
# Construct: FLAG tag (YKDDDDK) (C); made in house; host or cells: Sf21 insect cells (baculovirus, pFastBacI)
# Sequence (P51531 with tags, fused parts or gaps): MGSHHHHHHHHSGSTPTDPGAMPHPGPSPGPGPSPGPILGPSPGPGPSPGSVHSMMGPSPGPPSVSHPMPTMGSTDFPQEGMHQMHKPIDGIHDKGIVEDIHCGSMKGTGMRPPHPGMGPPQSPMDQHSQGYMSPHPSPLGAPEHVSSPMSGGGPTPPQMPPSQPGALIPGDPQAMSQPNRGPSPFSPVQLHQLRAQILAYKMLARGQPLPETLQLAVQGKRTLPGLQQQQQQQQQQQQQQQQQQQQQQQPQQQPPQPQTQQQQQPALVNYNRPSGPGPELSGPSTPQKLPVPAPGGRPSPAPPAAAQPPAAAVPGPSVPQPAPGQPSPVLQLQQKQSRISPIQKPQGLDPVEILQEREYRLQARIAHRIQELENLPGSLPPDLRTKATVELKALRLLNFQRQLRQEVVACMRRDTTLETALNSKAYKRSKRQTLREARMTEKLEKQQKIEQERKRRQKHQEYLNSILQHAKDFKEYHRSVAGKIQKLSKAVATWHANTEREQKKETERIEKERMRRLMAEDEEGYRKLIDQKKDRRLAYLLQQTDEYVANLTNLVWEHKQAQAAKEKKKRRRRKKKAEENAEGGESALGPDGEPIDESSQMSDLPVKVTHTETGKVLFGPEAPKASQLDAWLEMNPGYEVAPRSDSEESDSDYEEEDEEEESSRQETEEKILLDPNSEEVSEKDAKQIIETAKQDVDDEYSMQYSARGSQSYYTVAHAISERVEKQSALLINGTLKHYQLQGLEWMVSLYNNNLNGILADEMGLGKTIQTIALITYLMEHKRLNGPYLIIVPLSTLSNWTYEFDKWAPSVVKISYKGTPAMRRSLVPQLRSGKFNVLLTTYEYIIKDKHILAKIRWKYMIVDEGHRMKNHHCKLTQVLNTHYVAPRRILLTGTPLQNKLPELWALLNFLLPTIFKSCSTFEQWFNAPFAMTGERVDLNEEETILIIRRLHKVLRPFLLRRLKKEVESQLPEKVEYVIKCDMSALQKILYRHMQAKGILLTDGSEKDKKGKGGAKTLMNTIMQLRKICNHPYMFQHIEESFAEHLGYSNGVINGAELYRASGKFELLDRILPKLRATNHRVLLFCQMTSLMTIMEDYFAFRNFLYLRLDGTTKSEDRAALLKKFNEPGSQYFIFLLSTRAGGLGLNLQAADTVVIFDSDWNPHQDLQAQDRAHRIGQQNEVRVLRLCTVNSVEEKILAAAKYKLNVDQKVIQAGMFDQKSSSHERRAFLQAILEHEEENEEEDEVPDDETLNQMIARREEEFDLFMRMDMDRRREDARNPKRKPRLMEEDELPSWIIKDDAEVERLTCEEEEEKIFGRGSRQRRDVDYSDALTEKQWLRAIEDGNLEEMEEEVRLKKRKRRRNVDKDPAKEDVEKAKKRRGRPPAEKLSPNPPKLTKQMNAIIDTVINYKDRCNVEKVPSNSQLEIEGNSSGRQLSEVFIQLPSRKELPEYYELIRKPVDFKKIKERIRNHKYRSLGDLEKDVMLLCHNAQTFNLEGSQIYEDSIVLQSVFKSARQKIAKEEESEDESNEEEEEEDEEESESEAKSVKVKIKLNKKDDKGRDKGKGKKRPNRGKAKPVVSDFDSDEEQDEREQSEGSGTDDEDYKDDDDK
# testSummary: SMARCA2 ATPase activity assay (ADP-Glo, chicken mononucleosome substrate)
# Assay type: biochemical
# measurementParameters: Table 3.1; ATPase assay, enzyme 5 nM, ATP 250 uM, chicken mononucleosome 10 nM, 30 min preincubation
measuredParameter: IC50 (µM)

[1] CCn1cc(NC(=O)c2cc(Cl)n[nH]2)cc(Cl)c1=O
[2] O=C(Nc1cc(F)c(=O)n(CCF)c1)c1cc(Cl)c(Cl)o1
[3] N#Cc1[nH]c(C(=O)Nc2cc(Cl)c(=O)n(CCF)c2)cc1Cl
[4] O=C(Nc1ccc(=O)n(CCF)c1)c1cc(Cl)n[nH]1
Method: rank(items above, key=IC50, ascending=True) Write the labels out in the order the request specifies. 3, 1, 4, 2
(3: 0.112 µM, 1: 1.02 µM, 4: 1.93 µM, 2: 5.81 µM)

----------
# assayedSystem: FL-SMARCA2 (full-length human SMARCA2 isoform 1) (Homo sapiens, UniProt P51531)
# Construct: FLAG tag (YKDDDDK) (C); made in house; host or cells: Sf21 insect cells (baculovirus, pFastBacI)
# testSummary: SMARCA2 ATPase activity assay (ADP-Glo, chicken mononucleosome substrate)
# Type: biochemical
# measurementParameters: Table 3.1; ATPase assay, enzyme 5 nM, ATP 250 uM, chicken mononucleosome 10 nM, 30 min preincubation
measuredParameter: IC50 (nM)

Sample records with IC50:
INSERT INTO assay_data (molecule, measuredparameter, numericresult) VALUES
  ('N#Cc1sc(C(=O)Nc2cc(F)c(=O)n(CC(F)F)c2)cc1Cl', 'IC50', 27.2),
  ('CCn1cc(NC(=O)c2cc(Cl)c(Cl)s2)cc(NC)c1=O', 'IC50', 46800),
  ('N#Cc1cc(C(=O)Nc2ccc(=O)n(CC(F)(F)F)c2)sc1Cl', 'IC50', 281);

[a] O=C(Nc1cc(F)c(=O)n(CCF)c1)c1cc(Cl)c(CO)s1
[b] CS(=O)(=O)c1sc(C(=O)Nc2cc(F)c(=O)n(CCF)c2)cc1Cl
[c] CCn1cc(NC(=O)c2nnc(Cl)s2)ccc1=O
[d] CCn1cc(NC(=O)c2cc(Cl)c(Cl)[nH]2)cc(Cl)c1=O
Hey, can you sort those molecules up there by IC50, smallest first? Write the labels out in the order the request specifies. d, a, b, c
(d: 1850 nM, a: 3210 nM, b: 16700 nM, c: 33200 nM)

[P] CCn1cc(NC(=O)c2cc(C)c(Cl)s2)ccc1=O
[Q] O=C(Nc1cc(F)c(=O)n(CC(F)(F)F)c1)c1cc(Cl)c(Cl)[nH]1
[R] N#Cc1sc(C(=O)Nc2ccc(=O)n(CCF)c2)cc1Cl
[S] CC(O)C#Cc1cc(C(=O)Nc2cc(F)c(=O)n(CC(F)F)c2)sc1Cl (centres unmarked)
Order these by IC50, descending, and give the full ranking. Write the labels out in the order the request specifies. P, S, Q, R
(P: 28400 nM, S: 943 nM, Q: 375 nM, R: 142 nM)

[A] O=C(Nc1cc(F)c(=O)n(CC(F)(F)F)c1)c1cc(Cl)c(Cl)o1
[B] O=C(Nc1cc(Cl)c(=O)n(CCF)c1)c1cc(Cl)c(Cl)s1
[C] Cc1cc(C(=O)Nc2cc(F)c(=O)n(CCF)c2)on1
[D] N#Cc1sc(C(=O)Nc2ccc(=O)n(CC(F)F)c2)cc1Cl
Hey, can you sort those molecules up there by IC50, smallest first? Write the labels out in the order the request specifies. B, D, A, C
(B: 74.1 nM, D: 127 nM, A: 16700 nM, C: 25400 nM)
